Tested on: HeLa
Assay: Antiproliferative activity against human HeLa cells after 48 hrs by MTT assay
Assay type: functional, cell-based
pIC50: −log10 of the molar value.
measure.name: pIC50

| compound | reading |
| --- | --- |
| O=C1C2=C(C(=O)c3ccccc31)C(c1ccc(Cl)cc1)N1C(=N2)Sc2ccccc21 (stereo not given) | 4.81 |
| O=C1C2=C(C(=O)c3ccccc31)C(c1ccccc1)N1C(=N2)Sc2ccccc21 (stereo not given) | 5.52 |
| O=C1C2=C(C(=O)c3ccccc31)C(c1ccc([N+](=O)[O-])cc1)N1C(=N2)Sc2ccccc21 (stereo not given) | 4.54 |
| O=C1C2=C(C(=O)c3ccccc31)C(c1cccs1)N1C(=N2)Sc2ccccc21 (stereo not given) | 5.37 |
| O=C1C2=C(C(=O)c3ccccc31)C(c1ccco1)N1C(=N2)Sc2ccccc21 (stereo not given) | 5.18 |
| COc1cc(C2C3=C(N=C4Sc5ccccc5N42)C(=O)c2ccccc2C3=O)cc(OC)c1OC (stereo not given) | 5.03 |
| O=C1C2=C(C(=O)c3ccccc31)C(c1ccc(F)cc1)N1C(=N2)Sc2ccccc21 (stereo not given) | 5.40 |
| O=C1C2=C(C(=O)c3ccccc31)C(c1ccc(Cl)cc1Cl)N1C(=N2)Sc2ccccc21 (stereo not given) | 5.57 |
| Cc1ccc(C2C3=C(N=C4Sc5ccccc5N42)C(=O)c2ccccc2C3=O)cc1 (stereo not given) | 5.42 |
| COc1ccc(OC)c(C2C3=C(N=C4Sc5ccccc5N42)C(=O)c2ccccc2C3=O)c1 (stereo not given) | 3.90 |
